The following molecules have recorded pKi on UniProt P35346.
pKi: −log10 of the molar value. Where a SMILES comes first, the peptide text is derived from it. Bridges are numbered along the chain shown (N, C = ends). [ ]: non-standard residue; d: D form. Phe(4-Cl) = N[C@@H](Cc1ccc(Cl)cc1)C(=O)O; 2Nal = N[C@@H](Cc1ccc2ccccc2c1)C(=O)O; 3Pal = N[C@@H](Cc1cccnc1)C(=O)O; NMeK = CN[C@@H](CCCCN)C(=O)O; dNMeC = CN[C@H](CS)C(=O)O

{"molecule": "CNC(=O)[C@H](Cc1ccc2ccccc2c1)NC(=O)[C@@H]1CSSC[C@@H](N(C)C(=O)[C@@H](N)Cc2ccc(Cl)cc2)C(=O)N[C@@H](Cc2cccnc2)C(=O)N[C@H](Cc2c[nH]c3ccccc23)C(=O)N[C@@H](CCCCN)C(=O)N[C@@H]([C@@H](C)O)C(=O)N1 [Peptide 2] (H-[Phe(4-Cl)][dNMeC][3Pal][dW]KTC[2Nal]-NHMe; disulfide 2-7)", "pKi": 6.97}
{"molecule": "C[C@@H](O)[C@@H]1NC(=O)[C@H](CCCCN)N(C)C(=O)[C@@H](Cc2c[nH]c3ccccc23)NC(=O)[C@H](Cc2cccnc2)NC(=O)[C@H](NC(=O)[C@@H](N)Cc2cccnc2)CSSC[C@@H](C(=O)N[C@H](Cc2c[nH]c3ccccc23)C(N)=O)NC1=O [Peptide 16] (H-[3Pal][dC][3Pal][dW][NMeK]TC[dW]-NH2; disulfide 2-7)", "pKi": 6.50}

----------
# target.entity: hsst2 (Homo sapiens)
# Sequence (P30874 whole entry): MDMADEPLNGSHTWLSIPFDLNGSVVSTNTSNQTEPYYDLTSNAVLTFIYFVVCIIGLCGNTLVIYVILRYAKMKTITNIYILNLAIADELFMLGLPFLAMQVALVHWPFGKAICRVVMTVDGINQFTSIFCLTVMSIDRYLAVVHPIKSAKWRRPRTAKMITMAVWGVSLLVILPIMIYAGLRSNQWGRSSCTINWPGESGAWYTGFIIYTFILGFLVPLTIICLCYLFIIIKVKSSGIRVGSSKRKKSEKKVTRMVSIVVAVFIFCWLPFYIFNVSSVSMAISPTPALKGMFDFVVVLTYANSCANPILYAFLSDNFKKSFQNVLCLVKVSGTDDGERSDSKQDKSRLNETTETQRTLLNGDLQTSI
pKi: −log10 of the molar value. Where a SMILES comes first, the peptide text is derived from it. Bridges are numbered along the chain shown (N, C = ends). [ ]: non-standard residue; d: D form. Phe(4-Cl) = N[C@@H](Cc1ccc(Cl)cc1)C(=O)O; dNMeW = CN[C@H](Cc1c[nH]c2ccccc12)C(=O)O; 2Nal = N[C@@H](Cc1ccc2ccccc2c1)C(=O)O; NMeT = CN[C@H](C(=O)O)[C@@H](C)O; 3Pal = N[C@@H](Cc1cccnc1)C(=O)O; NMeK = CN[C@@H](CCCCN)C(=O)O
Assign met to entries whose pKi meets or exceeds 7; assign not met to the rest.

{"molecule": "C[C@@H](O)[C@@H]1NC(=O)[C@H](CCCCN)NC(=O)[C@@H](Cc2c[nH]c3ccccc23)NC(=O)[C@H](Cc2cccnc2)N(C)C(=O)[C@H](NC(=O)[C@@H](N)Cc2ccc(Cl)cc2)CSSC[C@@H](C(=O)N[C@@H](Cc2ccc3ccccc3c2)C(N)=O)NC1=O [Peptide 3]", "answer.label": "not met"}
{"molecule": "C[C@@H](O)[C@@H]1NC(=O)[C@H](CCCCN)N(C)C(=O)[C@@H](Cc2c[nH]c3ccccc23)NC(=O)[C@H](Cc2cccnc2)NC(=O)[C@H](NC(=O)[C@@H](N)Cc2ccc3ccccc3c2)CSSC[C@@H](C(=O)N[C@H](Cc2c[nH]c3ccccc23)C(N)=O)NC1=O [Peptide 15] (H-[2Nal][dC][3Pal][dW][NMeK]TC[dW]-NH2; disulfide 2-7)", "answer.label": "met"}
{"molecule": "C[C@@H](O)[C@@H]1NC(=O)[C@H](CCCCN)N(C)C(=O)[C@@H](Cc2c[nH]c3ccccc23)NC(=O)[C@H](Cc2cccnc2)NC(=O)[C@H](NC(=O)[C@@H](N)Cc2ccc(Cl)cc2)CSSC[C@@H](C(=O)N[C@H](Cc2c[nH]c3ccccc23)C(N)=O)NC1=O [Peptide 14] (H-[Phe(4-Cl)][dC][3Pal][dW][NMeK]TC[dW]-NH2; disulfide 2-7)", "answer.label": "met"}
{"molecule": "C[C@@H](O)[C@@H]1NC(=O)[C@H](CCCCN)N(C)C(=O)[C@@H](Cc2c[nH]c3ccccc23)NC(=O)[C@H](Cc2cccnc2)NC(=O)[C@H](NC(=O)[C@@H](N)Cc2cccnc2)CSSC[C@@H](C(=O)N[C@H](Cc2c[nH]c3ccccc23)C(N)=O)NC1=O [Peptide 16] (H-[3Pal][dC][3Pal][dW][NMeK]TC[dW]-NH2; disulfide 2-7)", "answer.label": "met"}
{"molecule": "C[C@@H](O)[C@@H]1NC(=O)[C@H](CCCCN)N(C)C(=O)[C@@H](Cc2c[nH]c3ccccc23)N(C)C(=O)[C@H](Cc2cccnc2)NC(=O)[C@H](NC(=O)[C@@H](N)Cc2ccc(Cl)cc2)CSSC[C@@H](C(=O)N[C@@H](Cc2ccc3ccccc3c2)C(N)=O)NC1=O [Peptide 11] (H-[Phe(4-Cl)][dC][3Pal][dNMeW][NMeK]TC[2Nal]-NH2; disulfide 2-7)", "answer.label": "met"}
{"molecule": "C[C@@H](O)[C@@H]1NC(=O)[C@H](CCCCN)N(C)C(=O)[C@@H](Cc2c[nH]c3ccccc23)NC(=O)[C@H](Cc2ccc(O)cc2)NC(=O)[C@H](NC(=O)[C@@H](N)Cc2ccc(Cl)cc2)CSSC[C@@H](C(=O)N[C@@H](Cc2ccc3ccccc3c2)C(N)=O)NC1=O [Peptide 12] (H-[Phe(4-Cl)][dC]Y[dW][NMeK]TC[2Nal]-NH2; disulfide 2-7)", "answer.label": "met"}
{"molecule": "C[C@@H](O)[C@@H]1NC(=O)[C@H](CCCCN)N(C)C(=O)[C@@H](Cc2c[nH]c3ccccc23)NC(=O)[C@H](Cc2cccnc2)NC(=O)[C@H](NC(=O)[C@@H](N)Cc2ccc(Cl)cc2)CSSC[C@@H](C(=O)N[C@@H](Cc2ccc3ccccc3c2)C(N)=O)NC1=O [Peptide 5] (H-[Phe(4-Cl)][dC][3Pal][dW][NMeK]TC[2Nal]-NH2; disulfide 2-7)", "answer.label": "met"}
{"molecule": "C[C@@H](O)[C@H]1C(=O)N[C@H](C(=O)N[C@@H](Cc2ccc3ccccc3c2)C(N)=O)CSSC[C@@H](NC(=O)[C@@H](N)Cc2ccc(Cl)cc2)C(=O)N[C@@H](Cc2cccnc2)C(=O)N[C@H](Cc2c[nH]c3ccccc23)C(=O)N[C@@H](CCCCN)C(=O)N1C [Peptide 6] (H-[Phe(4-Cl)][dC][3Pal][dW]K[NMeT]C[2Nal]-NH2; disulfide 2-7)", "answer.label": "not met"}
{"molecule": "CN[C@@H](Cc1ccc(Cl)cc1)C(=O)N[C@@H]1CSSC[C@@H](C(=O)N[C@@H](Cc2ccc3ccccc3c2)C(N)=O)NC(=O)[C@H]([C@@H](C)O)NC(=O)[C@H](CCCCN)NC(=O)[C@@H](Cc2c[nH]c3ccccc23)NC(=O)[C@H](Cc2cccnc2)NC1=O [Peptide 1]", "answer.label": "met"}

----------
# target.entity: hsst5 (Homo sapiens, UniProt P35346)
# Sequence (P35346 whole entry): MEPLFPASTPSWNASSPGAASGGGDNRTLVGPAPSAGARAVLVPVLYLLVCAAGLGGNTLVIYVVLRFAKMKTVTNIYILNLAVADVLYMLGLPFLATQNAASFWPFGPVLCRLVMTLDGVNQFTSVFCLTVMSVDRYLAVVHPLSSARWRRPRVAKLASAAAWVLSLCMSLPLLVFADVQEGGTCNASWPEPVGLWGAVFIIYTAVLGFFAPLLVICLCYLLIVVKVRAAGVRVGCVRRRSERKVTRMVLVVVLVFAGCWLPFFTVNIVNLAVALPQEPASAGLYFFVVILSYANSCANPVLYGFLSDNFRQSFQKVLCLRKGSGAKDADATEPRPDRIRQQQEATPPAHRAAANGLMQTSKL
pKi: −log10 of the molar value. Where a SMILES comes first, the peptide text is derived from it. Bridges are numbered along the chain shown (N, C = ends). [ ]: non-standard residue; d: D form. Phe(4-Cl) = N[C@@H](Cc1ccc(Cl)cc1)C(=O)O; dNMeW = CN[C@H](Cc1c[nH]c2ccccc12)C(=O)O; Dip = N[C@H](C(=O)O)C(c1ccccc1)c1ccccc1; 2Nal = N[C@@H](Cc1ccc2ccccc2c1)C(=O)O; 3Pal = N[C@@H](Cc1cccnc1)C(=O)O; NMeK = CN[C@@H](CCCCN)C(=O)O; dNMeC = CN[C@H](CS)C(=O)O
test.readout: pKi

{"compound": "CN[C@@H](Cc1ccc(Cl)cc1)C(=O)N[C@@H]1CSSC[C@@H](C(=O)N[C@@H](Cc2ccc3ccccc3c2)C(N)=O)NC(=O)[C@H]([C@@H](C)O)NC(=O)[C@H](CCCCN)NC(=O)[C@@H](Cc2c[nH]c3ccccc23)NC(=O)[C@H](Cc2cccnc2)NC1=O [Peptide 1]", "result": 7.40}
{"compound": "C[C@@H](O)[C@@H]1NC(=O)[C@H](CCCCN)N(C)C(=O)[C@@H](Cc2c[nH]c3ccccc23)NC(=O)[C@H](Cc2cccnc2)NC(=O)[C@H](NC(=O)[C@@H](N)Cc2ccc(Cl)cc2)CSSC[C@@H](C(=O)N[C@@H](Cc2ccc3ccccc3c2)C(N)=O)NC1=O [Peptide 5] (H-[Phe(4-Cl)][dC][3Pal][dW][NMeK]TC[2Nal]-NH2; disulfide 2-7)", "result": 8.22}
{"compound": "C[C@@H](O)[C@@H]1NC(=O)[C@H](CCCCN)NC(=O)[C@@H](Cc2c[nH]c3ccccc23)N(C)C(=O)[C@H](Cc2cccnc2)NC(=O)[C@H](NC(=O)[C@@H](N)Cc2ccc(Cl)cc2)CSSC[C@@H](C(=O)N[C@@H](Cc2ccc3ccccc3c2)C(N)=O)NC1=O [Peptide 4] (H-[Phe(4-Cl)][dC][3Pal][dNMeW]KTC[2Nal]-NH2; disulfide 2-7)", "result": 7.03}
{"compound": "C[C@@H](O)[C@@H]1NC(=O)[C@H](CCCCN)N(C)C(=O)[C@@H](Cc2c[nH]c3ccccc23)NC(=O)[C@H](Cc2cccnc2)NC(=O)[C@H](NC(=O)[C@@H](N)Cc2ccc3ccccc3c2)CSSC[C@@H](C(=O)N[C@H](Cc2c[nH]c3ccccc23)C(N)=O)NC1=O [Peptide 15] (H-[2Nal][dC][3Pal][dW][NMeK]TC[dW]-NH2; disulfide 2-7)", "result": 6.75}
{"compound": "CNC(=O)[C@@H](NC(=O)[C@@H]1CSSC[C@@H](N(C)C(=O)[C@@H](N)Cc2ccc(Cl)cc2)C(=O)N[C@@H](Cc2cccnc2)C(=O)N[C@H](Cc2c[nH]c3ccccc23)C(=O)N[C@@H](CCCCN)C(=O)N[C@@H]([C@@H](C)O)C(=O)N1)C(c1ccccc1)c1ccccc1 [Peptide 10] (H-[Phe(4-Cl)][dNMeC][3Pal][dW]KTC[Dip]-NHMe; disulfide 2-7)", "result": 6.12}
{"compound": "C[C@@H](O)[C@@H]1NC(=O)[C@H](CCCCN)N(C)C(=O)[C@@H](Cc2c[nH]c3ccccc23)N(C)C(=O)[C@H](Cc2cccnc2)NC(=O)[C@H](NC(=O)[C@@H](N)Cc2ccc(Cl)cc2)CSSC[C@@H](C(=O)N[C@@H](Cc2ccc3ccccc3c2)C(N)=O)NC1=O [Peptide 11] (H-[Phe(4-Cl)][dC][3Pal][dNMeW][NMeK]TC[2Nal]-NH2; disulfide 2-7)", "result": 6.95}
